Value source: patent US20200123233A1

Would you kindly list CVS-11 neutralizing antibody titer (RFFIT), IU/µM for each of these binders?
# Target under test: Rabies virus glycoprotein G, Challenge Virus Standard (CVS)-11 strain (Rabies virus, strain CVS-11 (genotype 1 Lyssavirus)) (UniProt O92284)
# Sequence (O92284 20-524 limits assumed): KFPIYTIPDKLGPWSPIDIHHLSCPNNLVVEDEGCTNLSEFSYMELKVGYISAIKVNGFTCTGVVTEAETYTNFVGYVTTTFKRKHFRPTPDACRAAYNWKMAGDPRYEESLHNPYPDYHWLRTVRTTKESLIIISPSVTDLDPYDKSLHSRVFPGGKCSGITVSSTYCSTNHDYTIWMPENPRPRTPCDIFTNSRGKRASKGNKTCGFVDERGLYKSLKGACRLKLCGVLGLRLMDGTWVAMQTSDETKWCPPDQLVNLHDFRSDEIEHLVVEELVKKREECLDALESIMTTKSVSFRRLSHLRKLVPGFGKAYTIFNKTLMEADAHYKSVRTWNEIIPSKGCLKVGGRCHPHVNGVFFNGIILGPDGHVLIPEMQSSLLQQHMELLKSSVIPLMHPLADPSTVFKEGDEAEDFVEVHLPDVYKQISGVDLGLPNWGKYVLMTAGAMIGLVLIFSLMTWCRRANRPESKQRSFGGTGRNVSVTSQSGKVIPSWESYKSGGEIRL
# Assay procedure: cell-based or functional assay
Just the number please, in IU/µM, no unit attached.

Challenge: Kindly indicate its recorded CVS-11 neutralizing antibody titer (RFFIT), IU/µM. Item: LG213D7 (VHH) VHH: EVQLVESGGGLVQAGGSLRLSCTVSGDTFDNSAAGWYRATSETQRELVARIRSSGSTNYADSVKGRFTVSRDNAKNTVYLQMNSLKPEDTAVYYCNVVSYGEYFWGKGTLVTVSS
Response given: 0.11

Challenge: Read off the recorded CVS-11 neutralizing antibody titer (RFFIT), IU/µM for LG212B12 (VHH) VHH: EVQLVESGGGLVQPGGSLRLSCAASGFTFGNYDMSWVRQAPGKGPEWVSGINTGGSTLYADSVKGRFTISRDNAKNTLYLQMNSLKSEDTAVYYCAKDLYGSTWYTDYWSQGTQVTVSS
Response given: 0.3
